# Test system: HEK-293T
# experiment: Multiplex assay against HEK293T
# Type: toxicity, cell-based
# run-parameters: human, 12 h, 10 µM, compound concentration 10 uM, replicate 2
result-type: Population Mitotic Cells (%)
Answer with the number, then the unit.

Sample records with Population Mitotic Cells (%):
molecule="CC1=C(C(=O)Nc2cc3cn[nH]c3cc2F)C(c2ccc(C(F)(F)F)cc2)CC(=O)N1 (stereo not given)" result_type="Population Mitotic Cells (%)" test_result=83%
molecule=C=CC(=O)Nc1cccc(Sc2nc(Nc3ccc(N4CCN(C)CC4)cc3)ncc2Cl)c1 result_type="Population Mitotic Cells (%)" test_result=93%
molecule="CCCSc1nc(N[C@@H]2C[C@H]2c2ccc(F)c(F)c2)c2nnn([C@@H]3C[C@H](OCCO)[C@@H](O)[C@H]3O)c2n1 [TICAGRELOR]" result_type="Population Mitotic Cells (%)" test_result=14%
molecule="COc1ccc(-c2ccc3ncc4c(c3c2)n(-c2ccc(N3CCNCC3)c(C(F)(F)F)c2)c(=O)n4C)cn1.O=C(O)/C=C\\C(=O)O [BGT-226]" result_type="Population Mitotic Cells (%)" test_result=3%
molecule="COc1ccccc1CN[C@H]1C2CCN(CC2)[C@H]1C(c1ccccc1)c1ccccc1 [CP-96345]" result_type="Population Mitotic Cells (%)" test_result=74%

For the record CCc1ccc(OCc2ccccc2C(=O)Nc2ccc3nc(C)cc(N)c3c2)cc1.Cl , what value of Population Mitotic Cells (%) is listed for HEK-293T? 37%

Fill in the recorded Population Mitotic Cells (%) for this molecule, with HEK-293T as test system: COC(=O)C1=C(C)NC(C)=C(C(=O)OCCCN2CCC(c3ccccc3)(c3ccccc3)CC2)[C@H]1c1cccc([N+](=O)[O-])c1 [NIGULDIPINE] 36%

Request: Population Mitotic Cells (%), test system HEK-293T, entry CC(C)OC(=O)N1CCC(Oc2ncnc3c2cnn3-c2ccc(S(C)(=O)=O)cc2F)CC1 94%

Find Population Mitotic Cells (%) (HEK-293T) for the entry C=CC(=O)Nc1ccc2[nH]c(=O)n(C3CCN(Cc4ccc(-c5nc6cc[nH]c(=O)c6cc5-c5ccccc5)cc4)CC3)c2c1 [Borussertib] 82%

API: value(readout= Population Mitotic Cells (%), system= HEK-293T, query= Cc1nc(N2CC[C@H](O)C2)ncc1-c1cc(C(F)(F)F)cc2[nH]ncc12 ) 94%

Entry CNC(=O)Nc1ccc(-c2nc(N3CC4CCC(C3)O4)c3cnn(C4CCC5(CC4)OCCO5)c3n2)cc1 , system HEK-293T: what Population Mitotic Cells (%) was measured? 43%

API: value(readout=Population Mitotic Cells (%), system=HEK-293T) for record Cc1cccc(CN2CCN(C(c3ccccc3)c3ccc(Cl)cc3)CC2)c1.Cl.Cl (stereo not given) 57%

Notebook: pull reported Population Mitotic Cells (%) for HEK-293T, entry CN(c1ccccc1CNc1nc(Nc2ccc3c(c2)CC(=O)N3)ncc1C(F)(F)F)S(C)(=O)=O 82%

Please provide the recorded Population Mitotic Cells (%) for CC(C)CC(=O)Nc1[nH]nc2c1CN(C(=O)C1CCN(C)CC1)C2(C)C [PHA-793887] , tested on HEK-293T. 74%

Any idea what Population Mitotic Cells (%) came out for CC(C)NC(=O)N1CC[C@H](NC2=Nc3cc(F)ccc3N(CC(F)F)c3ccc(Cl)cc32)C1 on HEK-293T? 79%

Where do the numbers come from? From ChEMBL document CHEMBL4689842.
